Can you tell me IC50 for the items I'm about to list?
target: GST-Syk Full Protein (human) (Homo sapiens, UniProt P43405); assay: Syk kinase inhibition test (HTRF method); assay type: biochemical; conditions: Tables 1-x, compounds A; read-out: sykHTRF ave IC50

Cc1ccnc(Nc2cccc(-c3cnc([C@H](CO)NC(=O)c4ccc(O)cc4)s3)n2)c1 : 100 to 1000 nM
Cc1cccnc1Nc1cccc(-c2cnc(N3CCC(CC(=O)O)CC3)s2)n1 : 100 to 1000 nM
Cc1ccnc(Nc2cccc(-c3cnc(N4CCC[C@H]4C(=O)NCC(C)(C)C)s3)n2)c1 : 100 to 1000 nM

// below: IC50 requested for another compound
So what does the record say about IC50 for Cc1ccnc(Nc2cccc(-c3cnc(N4CCCC(COCC(N)=O)C4)s3)n2)c1 (stereo not shown) ? < 100 nM

---

biological target: GST-Syk Full Protein (human) (Homo sapiens); test: Syk kinase inhibition test (HTRF method); type: biochemical; details: Tables 1-x, compounds A; read-out: sykHTRF ave IC50
Where a name gives a salt, the structure may show the parent alone.
For each entry below, report its IC50 value.

Please review the entries below; each comes with its answer.
Cc1ccnc(Nc2cccc(-c3cnc(N4CCOCC4)s3)n2)c1 [Compound A-417] : < 100 nM
NC(=O)[C@@H]1CCCN1c1ncc(-c2cccc(Nc3cc(Cl)ccn3)n2)s1 [Compound A-542] : < 100 nM
O=C(O)Cc1ccnc(Nc2cccc(-c3cnc(N4CC[C@@H](O)C4)s3)n2)c1 [Compound A-557] : 100 to 1000 nM
Cc1ccnc(Nc2cccc(-c3cnc(N4CCN(C=O)CC4)s3)n2)c1 [Compound A-410] : 100 to 1000 nM
COC1CCN(c2ncc(-c3cccc(Nc4cc(C)ccn4)n3)s2)CC1 [Compound A-431] : < 100 nM
OCC1CCN(c2ncc(-c3cccc(Nc4cc(Cl)ccn4)n3)s2)C1 (stereo not shown) [Compound A-562] : < 100 nM
COc1ccc(C)cc1Nc1cccc(-c2cnc(N3CCC(CC(=O)O)CC3)s2)n1 [Compound A-708] : 100 to 1000 nM
Cc1ccnc(Nc2cccc(-c3cnc(N(CC(N)=O)[C@H]4CC[C@@H](C(=O)O)CC4)s3)n2)c1 [Compound A-598] : < 100 nM
Cc1ccnc(Nc2cccc(-c3cnc(N(C)[C@H]4CC[C@@H](C(=O)O)CC4)s3)n2)c1 [Compound A-591] : < 100 nM
Cc1ccnc(Nc2cccc(-c3cnc(N(CC(N)=O)C[C@H]4CC[C@H](C(=O)O)CC4)s3)n2)c1 [Compound A-599] : < 100 nM

Record IC50 per entry; entries follow.
1. Cc1ccnc(Nc2cccc(-c3cnc(CN4C[C@@H](O)[C@@H](O)C4)s3)n2)c1 [Compound A-381]
2. CNC(=O)[C@@H]1CCCN1Cc1ncc(-c2cccc(Nc3cc(C)ccn3)n2)s1 [Compound A-666]
3. Cc1ccnc(Nc2cccc(-c3cnc(N(C)C4CCN(C(=O)N5CCC(O)CC5)CC4)s3)n2)c1 [Compound A-703]
4. COCCN(c1ncc(-c2cccc(Nc3cc(C)ccn3)n2)s1)C1CCN(C(C)=O)CC1 [Compound A-526]
5. Cc1ccnc(Nc2cccc(-c3cnc(N4CCN(CC(=O)O)C(=O)C4)s3)n2)c1 [Compound A-464, dihydrochloride]
6. O=C(NO)[C@@H]1CCCN(c2ncc(-c3cccc(Nc4cc(Cl)ccn4)n3)s2)C1 [Compound A-552]

1. 100 to 1000 nM
2. 100 to 1000 nM
3. 100 to 1000 nM
4. < 100 nM
5. < 100 nM
6. < 100 nM

---

Exercise: for every item that follows, state its recorded IC50.
target: GST-Syk Full Protein (human) (Homo sapiens, UniProt P43405); test: Syk kinase inhibition test (HTRF method); type: biochemical; settings: Tables 1-x, compounds A; read-out: sykHTRF ave IC50
Structures can show the parent of a compound that is named as a salt.

Cc1ccnc(Nc2cccc(-c3cnc(N(C)C4CCN(C(=O)C(C)(C)C)CC4)s3)n2)c1 : 0.1 to 1 µM
COc1ccnc(Nc2cccc(-c3cnc(N4CC[C@@H](O)C4)s3)n2)c1 : < 0.1 µM
Cc1ccnc(Nc2cccc(-c3cnc(N4CCC[C@H]4C(=O)O)s3)n2)c1 : 0.1 to 1 µM

Below are some molecules; for each one, tell me its IC50.
1. Cc1ccnc(Nc2cccc(-c3cnc(N4CCN(C(=O)CCC(=O)O)CC4)s3)n2)c1
2. Cc1ccnc(Nc2cccc(-c3cnc(N4CCC(c5noc(=O)[nH]5)CC4)s3)n2)c1
3. CC(=O)N1CCC(N(CCO)c2ncc(-c3cccc(Nc4cc(C)ccn4)n3)s2)CC1
4. Cc1ccnc(Nc2cccc(-c3cnc(N4CCCC(COCC(=O)O)C4)s3)n2)c1 (stereo not drawn) [Compound A-497, dihydrochloride]
5. CNC(=O)CC1CCN(c2ncc(-c3cccc(Nc4cc(C)ccn4)n3)s2)CC1
6. CNC(=O)CN1C(=O)OC[C@H]1c1ncc(-c2cccc(Nc3cc(C)ccn3)n2)s1
7. Cc1ccnc(Nc2cccc(-c3cnc(N(C)CCCC(=O)O)s3)n2)c1 [Compound A-634, dihydrochloride]

["< 0.1 µM", "< 0.1 µM", "< 0.1 µM", "< 0.1 µM", "< 0.1 µM", "> 1 µM", "< 0.1 µM"]

Hey, quick one: what's IC50 for each of these?
1. Cc1ccnc(Nc2cccc(-c3cnc(N(C)CCNC(=O)CO)s3)n2)c1
2. Cc1ccnc(Nc2cccc(-c3cnc(C4CCC(CC(=O)O)CC4)s3)n2)c1 (stereo not drawn) [Compound A-595, hydrochloride]
3. Cc1ccnc(Nc2cccc(-c3cnc([C@@H]4COC(=O)N4CC(=O)N(C)C)s3)n2)c1
4. Cc1ccnc(Nc2cccc(-c3cnc(N(C)CCc4ccc(C(=O)O)cc4)s3)n2)c1 [Compound A-593, dihydrochloride]
5. Cc1ccnc(Nc2cccc(-c3cnc(N(CC(=O)N(C)C)Cc4ccc(C(=O)O)cc4)s3)n2)c1 [Compound A-597, dihydrochloride]

1: < 0.1 µM; 2: < 0.1 µM; 3: > 1 µM; 4: < 0.1 µM; 5: < 0.1 µM

---

Field: pIC50. Provide a value for each of the compounds that follow.
tested on: cultured human mast cells; assay: Degranulation inhibition test using cultured human mast cells (IgE cross-linking, β-Hexosaminidase release); type: cell-based; conditions: Mast cell; cultured human mast cells, anti-hIgE stimulation, β-Hexosaminidase index, average; read-out: human degranulation ave. IC50
pIC50: −log10 of the molar value.

CC(=O)NCc1ncc(-c2cccc(Nc3cc(C)ccn3)n2)s1 : 6.00 to 7.00
Cc1ccnc(Nc2cccc(-c3cnc([C@@H](O)CCC(=O)O)s3)n2)c1 : < 6.00
COC(=O)NCCc1ncc(-c2cccc(Nc3cc(C)ccn3)n2)s1 : 6.00 to 7.00
COc1ccc(C[C@H](NC(C)=O)c2ncc(-c3cccc(Nc4cc(C)ccn4)n3)s2)cc1 : < 6.00
Cc1ccnc(Nc2cccc(-c3cnc([C@@H](N)CCC(=O)O)s3)n2)c1 : < 6.00

Batch lookup, pIC50 per entry.
1. C[C@H](O)c1ncc(-c2cccc(Nc3cc(OCCO)ccn3)n2)s1
2. Cc1ccnc(Nc2cccc(-c3cnc([C@@H](N)Cc4ccccc4)s3)n2)c1
3. CC(=O)N[C@@H](C)c1ncc(-c2cccc(Nc3cc(C4(C)OCCO4)ccn3)n2)s1

["> 7.00", "< 6.00", "6.00 to 7.00"]

Items follow; give pIC50 for each.
1. Cc1ccnc(Nc2cccc(-c3cnc([C@H]4CC[C@H](C(=O)N5CCC(NS(C)(=O)=O)C5)CC4)s3)n2)c1 (some centres unmarked)
2. Cc1ccnc(Nc2cccc(-c3sc(N4CCOCC4)nc3C)n2)c1
3. CN[C@@H](C)c1ncc(-c2cccc(Nc3cc(C)ccn3)n2)s1
4. Cc1ccnc(Nc2cccc(-c3cnc(CCc4ccc(C(=O)N5CCC(O)CC5)cc4)s3)n2)c1

1. 6.00 to 7.00
2. 6.00 to 7.00
3. 6.00 to 7.00
4. 6.00 to 7.00

Batch request: pIC50 for each of the following compounds.
1. CNC(=O)c1ncc(-c2cccc(Nc3cc(C)ccn3)n2)s1
2. Cc1ccnc(Nc2cccc(-c3cnc(C4=NCCC4)s3)n2)c1
3. CC(=O)Nc1nc(C)c(-c2cccc(Nc3cc(C)ccn3)n2)s1
4. Cc1ccnc(Nc2cccc(-c3cnc([C@H]4CC[C@@H](C#N)CC4)s3)n2)c1

1: 6.00 to 7.00; 2: 6.00 to 7.00; 3: 6.00 to 7.00; 4: 6.00 to 7.00

Batch: pIC50 for all items listed.
1. Cc1ccnc(Nc2cccc(-c3cnc(C)s3)n2)c1
2. Cc1ccnc(Nc2cccc(-c3cnc([C@H]4CC[C@H](C(=O)O)CC4)s3)n2)c1
3. Cc1ccnc(Nc2cccc(-c3cnc([C@H]4CC[C@H](CNC(=O)CO)CC4)s3)n2)c1
4. Cc1ccnc(Nc2cccc(-c3cnc([C@H]4CC[C@H](C(=O)N5CCC(O)C5)CC4)s3)n2)c1 (some centres unmarked)
5. CC(=O)Nc1ccc(C[C@H](NC(C)=O)c2ncc(-c3cccc(Nc4cc(C)ccn4)n3)s2)cc1
6. Cc1ccnc(Nc2cccc(-c3cnc([C@H]4CC[C@H](C(=O)N5C[C@@H](O)[C@@H](O)C5)CC4)s3)n2)c1
7. COc1ccnc(Nc2cccc(-c3cnc([C@H](C)O)s3)n2)c1
8. Cc1ccnc(Nc2cccc(-c3cnc(CCCCC(N)=O)s3)n2)c1

1. 6.00 to 7.00
2. < 6.00
3. 6.00 to 7.00
4. 6.00 to 7.00
5. 6.00 to 7.00
6. 6.00 to 7.00
7. > 7.00
8. 6.00 to 7.00
